Target: human recombinant USP30 (Homo sapiens, UniProt Q70CQ3)
Experiment: Ubiquitin-Rhodamine 110 Assay for USP30 Activity (USP30 Inhibitor Biochemical Assay)
Conditions: 0.2 nM USP30, 25 nM Ub-Rh110, 30 min preincubation, 30 min at room temperature; read-out: USP30 potency range (USP30 biochemical IC50 assay, IC50 ranges)
pIC50: −log10 of the molar value.
Here the recorded pIC50 is given for each entry.

Consider the reported pIC50 for these compounds:
| compound | pIC50 |
| --- | --- |
| N#CN[C@H]1C[C@H](C(=O)Nc2ncc(C3CCCCC3)o2)C1 | 6.00 to 7.00 |
| N#CN[C@H]1C[C@H](NC(=O)c2ncc(-c3ccccc3)s2)C1 | 5.00 to 6.00 |
| N#CN[C@H]1C[C@H](C(=O)Nc2ncc([C@@H]3CCCC[C@@H]3C(F)(F)F)s2)C1 | 6.00 to 7.00 |
| N#CN[C@H]1C[C@H](C(=O)Nc2ccc(Cl)c(C(F)(F)F)c2)C1 | 5.00 to 6.00 |
| N#CN[C@H]1CC[C@H](C(=O)Nc2ncc(C3CCCCC3)s2)CC1 | 5.00 to 6.00 |

Prompt: Please look up its pIC50: N#CN[C@H]1C[C@H]1C(=O)Nc1ncc(C2CCCCC2)s1 (relative stereo)
Response: 5.00 to 6.00

Prompt: Please look up its pIC50: N#CN[C@H]1C[C@H](C(=O)Nc2cccc(-c3ccccc3)c2)C1
Response: 6.00 to 7.00

###

Molecular target: human recombinant USP30 (Homo sapiens, UniProt Q70CQ3)
Experiment: Ubiquitin-Rhodamine 110 Assay for USP30 Activity (USP30 Inhibitor Biochemical Assay)
Conditions: 0.2 nM USP30, 25 nM Ub-Rh110, 30 min preincubation, 30 min at room temperature; read-out: USP30 potency range (USP30 biochemical IC50 assay, IC50 ranges)
pIC50: −log10 of the molar value.
Here the recorded pIC50 is given for each entry.

Consider the reported pIC50 for these compounds:
| compound | studySystem | pIC50 |
| --- | --- | --- |
| N#CN[C@H]1C[C@H](C(=O)Nc2cnc(C3CC(F)(F)C3)s2)C1 [Compound 1-9] | human recombinant USP30 (Homo sapiens, UniProt Q70CQ3) | 6.00 to 7.00 |
| N#CN[C@H]1C[C@H](C(=O)Nc2ncc(C3CCCCC3)s2)C1 [Compound 5-7] | human recombinant USP30 (Homo sapiens, UniProt Q70CQ3) | 6.00 to 7.00 |
| N#CN[C@@H]1CCC[C@H](C(=O)Nc2ncc(C3CCCCC3)s2)C1 [Compound 10-6] | human recombinant USP30 (Homo sapiens, UniProt Q70CQ3) | 5.00 to 6.00 |
| CN(c1cnc(C2CCCCC2)s1)C(=O)[C@H]1C[C@H](NC#N)C1 [Compound 1-4] | human recombinant USP30 (Homo sapiens, UniProt Q70CQ3) | 6.00 to 7.00 |
| N#CN[C@H]1CCC[C@H](C(=O)Nc2ncc(C3CCCCC3)s2)C1 [Compound 10-5] | human recombinant USP30 (Homo sapiens, UniProt Q70CQ3) | < 4.60 |

Prompt: Please look up its pIC50: C[C@]1(C(=O)Nc2cnc(C3CCCCC3)s2)C[C@H](NC#N)C1 [Compound 1-11]
Response: > 7.00

Prompt: Please look up its pIC50: N#CN[C@H]1C[C@H](C(=O)Nc2cnc(C3CCCCC3)s2)C1 [Compound 1-3]
Response: > 7.00

Prompt: Please look up its pIC50: N#CN[C@H]1C[C@H](C(=O)Nc2ccc(F)c(N3CCCCC3)c2)C1 [Compound 1-63]
Response: 6.00 to 7.00

Prompt: Please look up its pIC50: N#CN[C@@H]1CC[C@@H](C(=O)Nc2ncc(C3CCOCC3)s2)C1 [Compound 10-11]
Response: 4.60 to 5.00

###

Target: human recombinant USP30 (Homo sapiens, UniProt Q70CQ3)
Sequence (Q70CQ3 1-517): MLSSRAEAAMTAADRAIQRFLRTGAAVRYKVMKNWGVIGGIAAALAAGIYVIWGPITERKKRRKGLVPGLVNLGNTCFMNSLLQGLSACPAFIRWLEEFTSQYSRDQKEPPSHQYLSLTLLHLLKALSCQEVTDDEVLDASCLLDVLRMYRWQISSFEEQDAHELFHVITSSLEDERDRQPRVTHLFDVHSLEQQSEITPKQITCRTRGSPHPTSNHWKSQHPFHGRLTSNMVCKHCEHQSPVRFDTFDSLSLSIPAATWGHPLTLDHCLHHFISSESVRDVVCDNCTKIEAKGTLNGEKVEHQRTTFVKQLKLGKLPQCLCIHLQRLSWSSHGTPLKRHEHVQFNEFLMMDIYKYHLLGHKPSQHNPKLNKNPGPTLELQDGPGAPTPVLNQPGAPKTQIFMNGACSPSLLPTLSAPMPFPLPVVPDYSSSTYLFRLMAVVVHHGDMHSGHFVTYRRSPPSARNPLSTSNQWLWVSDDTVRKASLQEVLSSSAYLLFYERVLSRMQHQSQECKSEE
Assay: Ubiquitin-Rhodamine 110 Assay for USP30 Activity (USP30 Inhibitor Biochemical Assay)
Conditions: 0.2 nM USP30, 25 nM Ub-Rh110, 30 min preincubation, 30 min at room temperature; read-out: USP30 potency range (USP30 biochemical IC50 assay, IC50 ranges)
Here the recorded IC50 is given for each entry.

Consider the reported IC50 for these molecules:
| molecule | measure | observed |
| --- | --- | --- |
| N#CN[C@H]1C[C@H](C(=O)Nc2ccn(-c3ccccc3)n2)C1 | IC50 | 1000 to 10000 nM |
| N#CNC1CC2(CCN2C(=O)c2cnc(-c3ccccc3)s2)C1 (centres unmarked) | IC50 | 100 to 1000 nM |
| CC1(C)[C@@H]2CC[C@@H](CNC(=O)[C@H]3C[C@H](NC#N)C3)[C@H]1C2 | IC50 | 100 to 1000 nM |

Prompt: Please look up its IC50: N#CN[C@H]1C[C@@H](C(=O)Nc2ccc3c(c2)CCC3)C1
Response: 1000 to 10000 nM

Prompt: Please look up its IC50: N#CN[C@H]1C[C@@H](C(=O)N2CCN(c3ccccc3)CC2)C1
Response: 10000 to 25000 nM

###

Molecular target: human recombinant USP30 (Homo sapiens, UniProt Q70CQ3)
Test: Ubiquitin-Rhodamine 110 Assay for USP30 Activity (USP30 Inhibitor Biochemical Assay)
Details: 0.2 nM USP30, 25 nM Ub-Rh110, 30 min preincubation, 30 min at room temperature; read-out: USP30 potency range (USP30 biochemical IC50 assay, IC50 ranges)
pIC50: −log10 of the molar value.
Here the recorded pIC50 is given for each entry.

Consider the reported pIC50 for these compounds:
| compound | pIC50 |
| --- | --- |
| N#CN[C@H]1C[C@H](C(=O)Nc2cc(C(F)(F)F)ccn2)C1 | 6.00 to 7.00 |
| N#CN[C@H]1C[C@H](C(=O)Nc2cc(Cl)cc(C3CCCCC3)c2)C1 | > 7.00 |
| CN(c1ncc(C(C)(C)C)s1)C(=O)[C@H]1C[C@H](NC#N)C1 | 6.00 to 7.00 |
| N#CN[C@H]1C[C@@](F)(C(=O)Nc2nc(Cl)c(C3CCCCC3)s2)C1 | > 7.00 |
| CC(C)(C)c1sc(N2CC[C@]3(C[C@H](NC#N)C3)C2=O)nc1Cl (single isomer, unassigned) | > 7.00 |
| N#CN[C@H]1C[C@@H](C(=O)Nc2ncc(-c3ccccc3)s2)C1 | 5.00 to 6.00 |
| CC(C)(C)c1sc(NC(=O)[C@]2(Cl)C[C@H](NC#N)C2)nc1Cl (single isomer, unassigned) | 6.00 to 7.00 |
| CN(c1nc(Cl)c(C2CCCCC2)s1)C(=O)[C@H]1C[C@H](NC#N)C1 | > 7.00 |
| N#CN[C@H]1C[C@H](C(=O)Nc2nc(-c3ccc(Cl)cc3)cs2)C1 | 6.00 to 7.00 |

Prompt: Please look up its pIC50: N#CN[C@H]1C[C@H](C(=O)Nc2nc(Cl)c(C3CCCCC3)s2)C1
Response: > 7.00

###

Target: human recombinant USP30 (Homo sapiens)
Sequence (Q70CQ3 1-517): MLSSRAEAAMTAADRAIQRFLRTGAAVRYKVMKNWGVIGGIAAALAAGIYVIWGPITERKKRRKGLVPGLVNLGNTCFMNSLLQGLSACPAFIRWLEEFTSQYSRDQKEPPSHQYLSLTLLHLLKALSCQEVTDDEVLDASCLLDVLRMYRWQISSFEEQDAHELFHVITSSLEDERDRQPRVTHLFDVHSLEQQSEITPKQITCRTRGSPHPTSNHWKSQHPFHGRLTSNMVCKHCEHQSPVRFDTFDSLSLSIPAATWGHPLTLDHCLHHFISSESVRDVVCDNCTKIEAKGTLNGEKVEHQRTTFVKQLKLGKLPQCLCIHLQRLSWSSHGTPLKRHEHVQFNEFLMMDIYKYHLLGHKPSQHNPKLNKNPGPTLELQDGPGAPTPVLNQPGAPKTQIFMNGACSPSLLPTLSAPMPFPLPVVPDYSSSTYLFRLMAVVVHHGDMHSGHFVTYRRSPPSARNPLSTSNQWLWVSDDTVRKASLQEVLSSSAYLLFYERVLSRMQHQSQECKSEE
Experiment: Ubiquitin-Rhodamine 110 Assay for USP30 Activity (USP30 Inhibitor Biochemical Assay)
Settings: 0.2 nM USP30, 25 nM Ub-Rh110, 30 min preincubation, 30 min at room temperature; read-out: USP30 potency range (USP30 biochemical IC50 assay, IC50 ranges)
pIC50: −log10 of the molar value.
Here the recorded pIC50 is given for each entry.

Consider the reported pIC50 for these compounds:
| compound | studySystem | pIC50 |
| --- | --- | --- |
| CN(c1nc(Cl)c(C2CCCCC2)s1)C(=O)[C@]1(F)C[C@@H](NC#N)C1 [Compound 1-58] | human recombinant USP30 (Homo sapiens) | 6.00 to 7.00 |
| CC(C)(C)c1sc(NC(=O)[C@H]2C[C@H](NC#N)C2)nc1Cl [Compound 1-19] | human recombinant USP30 (Homo sapiens) | > 7.00 |

Prompt: Please look up its pIC50: C[C@@H]1CCCC[C@H]1c1cnc(NC(=O)[C@H]2C[C@H](NC#N)C2)s1 [Compound 1-24]
Response: > 7.00

Source: patent US11247987B2
